test-target: ANGPTL2
study-conditions: ASO, 25 µM
After the bases stand the sugars from the 5' end (letter, count) and the backbone: PS all phosphorothioate, else s phosphorothioate and o phosphodiester by linkage. Methylation of C is not given here. l = locked nucleic acid (LNA); d = 2'-deoxy (DNA)
Please enter satisfied where target mRNA inhibition is greater than or equal to 50%, and not satisfied where it is lower.

Q: Please tell me: is the sequence ATTTTGAGATTCCCCCAAAG (sugars l1 d17 l2, PS) at or over 50% in terms of target mRNA inhibition?
Ans: not satisfied

Q: Given the entry TTATAAAGACAAGAGCCT (sugars l3 d12 l3, PS) , answer whether its target mRNA inhibition meets or surpasses 50%.
Ans: not satisfied

Q: Hi team, for AAGCTGTTGAAATGTATG (sugars l3 d11 l4, PS) , is the recorded target mRNA inhibition at or above 50%?
Ans: not satisfied

Q: Record GAGTTTGGATCATAGAA (sugars l4 d10 l3, PS) ; criterion: target mRNA inhibition no lower than 50%. Met?
Ans: satisfied

Q: Quick check, target mRNA inhibition >= 50%? CTGGTTGATGATGCGGTTG (sugars l1 d16 l2, PS)
Ans: satisfied

====

test-target: KRAS
study-conditions: ASO, A431, 2 µM
After the bases stand the sugars from the 5' end (letter, count) and the backbone: PS all phosphorothioate, else s phosphorothioate and o phosphodiester by linkage. Methylation of C is not given here. e = 2'-O-(2-methoxyethyl) (MOE); k = constrained ethyl (cEt); d = 2'-deoxy (DNA)
Output y for target mRNA inhibition not less than 30%; output n otherwise.

Use these answered entries as a reference point.
>>> df
                          ordered_residues  test_target  qualitative_label
0  TCTTATGGTTAGGGGA (sugars k3 d10 k3, PS)         KRAS                  n
1  TTTAAAAAAAAAATTA (sugars k3 d10 k3, PS)         KRAS                  n
2  GTCTATTCATACCAGG (sugars k3 d10 k3, PS)         KRAS                  y

Q: Evaluate TGCAGTGTGACTCAGT (sugars k3 d10 k3, PS) : target mRNA inhibition at minimum 30%?
Ans: y

Q: Quick check: does TCCAGTGATACTTTCA (sugars kkdddddddddkekek, PS) have target mRNA inhibition greater than or equal to 30%?
Ans: y

Q: Entry TATCTTGTTGAGCTAT (sugars k3 d10 k3, PS) : is its target mRNA inhibition no less than 30%?
Ans: y

Q: Quick check, target mRNA inhibition >= 30%? TGATTTGTCAGCAGGA (sugars kkdddddddddkdkdk, PS)
Ans: n

====

test-target: APOL1
study-conditions: ASO, A431, 2 µM
After the bases stand the sugars from the 5' end (letter, count) and the backbone: PS all phosphorothioate, else s phosphorothioate and o phosphodiester by linkage. Methylation of C is not given here. e = 2'-O-(2-methoxyethyl) (MOE); k = constrained ethyl (cEt); d = 2'-deoxy (DNA)
What target mRNA inhibition was measured for each of the following?
Give bare numbers, in %.

Example cases with answers are listed next.
In [3]: df
Out[3]:
                           ordered_residues  value
0  GCAGTTTTGTAAGTGC (sugars k2 d4 e3 k2 d5, PS)     79
1  GCTAATTTTCTGACTG (sugars kkddddkekekddddd, PS)     96

Please state target mRNA inhibition for every sequence in the list that follows.
1. TTATATTTGATCCTCA (sugars k2 d4 e3 k2 d5, PS)
2. TGTTATATTTGATCCT (sugars kkkddddkekeddddd, PS)
3. GTTCAAAAGCAGCATT (sugars kddddkekekeddddd, PS)
4. GTATTGTTTTTGTGGG (sugars kddddkekekeddddd, PS)
5. GAAGATTGGCTCTGGC (sugars k2 d4 e3 k2 d5, PS)
6. GTTATGAAATTATTGG (sugars kkkddddkekeddddd, PS)
7. GTTCAAAAGCAGCATT (sugars kkddddkdkdkddddd, PS)

Ans:
1. 96
2. 71
3. 33
4. 70
5. 81
6. 93
7. 73

// batch mode: one target mRNA inhibition value per listed entry
1. GCTTTAAACTCAGGTG (sugars kkddddkekekkdddd, PS)
2. GTTCTAACTCTTGGGC (sugars k3 d4 k3 e1 d5, PS)
3. TTATATTTGATCCTCA (sugars kkddddkekekddddd, PS)

Ans:
1: 50; 2: 58; 3: 91

Dear colleague, could you please provide target mRNA inhibition for the sequences listed below?
1. TGGTTCAAAAGCAGCA (sugars k2 d4 e3 k2 d5, PS)
2. GTATTTCTTGATGTGG (sugars k2 d4 e3 k2 d5, PS)
3. TTTGTAAGTGCAACCA (sugars kkddddkekekkdddd, PS)
4. GGAATTATGGAATTGC (sugars kkddddkekekddddd, PS)

Ans:
[93, 97, 87, 82]

# per-item lookup of target mRNA inhibition; items listed below
1. TCCGTCAATATATTCT (sugars k2 d4 e3 k2 d5, PS)
2. TCCGTCAATATATTCT (sugars kkddddekekeddddd, PS)
3. TATTTCTTGATGTGGT (sugars kkkddddkekekdddd, PS)
4. GCATTCAGAATTTCCA (sugars k3 d4 k3 e1 d5, PS)

Ans:
96
97
95
95

Value sought for every listed sequence: target mRNA inhibition.
1. CTTTATACCAGTGTCT (sugars kekddddeekkddddd, PS)
2. GTTCAAAAGCAGCATT (sugars kkdddddkekeddddd, PS)

Ans:
[95, 89]
